Molecular target: Sialyltransferase ST3Gal-I (Rattus norvegicus) (UniProt Q6H8N0)
Sequence (whole entry): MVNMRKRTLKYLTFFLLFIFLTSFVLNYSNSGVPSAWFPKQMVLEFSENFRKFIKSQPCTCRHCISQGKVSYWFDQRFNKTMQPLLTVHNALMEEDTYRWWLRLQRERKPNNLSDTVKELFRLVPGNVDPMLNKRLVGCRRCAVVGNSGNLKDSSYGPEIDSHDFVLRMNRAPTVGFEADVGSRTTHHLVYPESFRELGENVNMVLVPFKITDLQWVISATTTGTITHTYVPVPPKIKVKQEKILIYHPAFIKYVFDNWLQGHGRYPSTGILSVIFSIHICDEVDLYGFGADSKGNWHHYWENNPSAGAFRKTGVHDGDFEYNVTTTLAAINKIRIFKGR
Assay: Inhibition of rat alpha-2,3-O-ST3GALI assessed as reduction in sialylated-product formation at 500 uM using p-nitrophenyl T-antigen and CMP-NeuSAc incubated for 15 mins by reverse-phase HPLC analysis relative to control
Provide the reported inhibition of each item.
Write the value in % as a bare number.

So for C[C@H](CCC(=O)OCCOCCOCCN=[N+]=[N-])[C@H]1CC[C@H]2[C@@H]3CC[C@@H]4C[C@H](OC(=O)[C@H](CC(=O)O)Nc5ccc([N+](=O)[O-])c6nonc56)CC[C@]4(C)[C@H]3CC[C@]12C , the logged inhibition turned out to be 0

Data point: C[C@H](CCC(=O)OCCOCCOCCOCCN=[N+]=[N-])[C@H]1CC[C@H]2[C@@H]3CC[C@@H]4C[C@H](OC(=O)[C@H](CC(=O)O)NC(=O)c5ccc([N+](=O)[O-])cc5)CC[C@]4(C)[C@H]3CC[C@]12C ; inhibition = 0

GET /value?item= C[C@H](CCC(=O)NCC(=O)O)[C@H]1CC[C@H]2[C@@H]3CC[C@@H]4C[C@H](O)CC[C@]4(C)[C@H]3CC[C@]12C &field=inhibition returns 15

Noted for COc1ccc2c(CC(=O)N[C@@H](CC(=O)O)C(=O)O[C@@H]3CC[C@@]4(C)[C@H](CC[C@@H]5[C@@H]4CC[C@]4(C)[C@@H]([C@H](C)CCC(=O)OCCOCCOCCOCCN=[N+]=[N-])CC[C@@H]54)C3)cc(=O)oc2c1 : its inhibition reads 0

Short answer for COc1ccc2c(CC(=O)N[C@@H](CC(=O)O)C(=O)O[C@@H]3CC[C@@]4(C)[C@H](CC[C@@H]5[C@@H]4CC[C@]4(C)[C@@H]([C@H](C)CCC(=O)OCCN=[N+]=[N-])CC[C@@H]54)C3)cc(=O)oc2c1 : inhibition was 0
